Assayed Target: HCV NS5B (Hepatitis C virus genotype 1b)
Construct: The protein was expressed with an 18 amino acid C-terminal truncation to enhance the solubility; made in house; host or cells: E. coli BL21 (DE3)
Sequence (Q9WMX2 2420-2992): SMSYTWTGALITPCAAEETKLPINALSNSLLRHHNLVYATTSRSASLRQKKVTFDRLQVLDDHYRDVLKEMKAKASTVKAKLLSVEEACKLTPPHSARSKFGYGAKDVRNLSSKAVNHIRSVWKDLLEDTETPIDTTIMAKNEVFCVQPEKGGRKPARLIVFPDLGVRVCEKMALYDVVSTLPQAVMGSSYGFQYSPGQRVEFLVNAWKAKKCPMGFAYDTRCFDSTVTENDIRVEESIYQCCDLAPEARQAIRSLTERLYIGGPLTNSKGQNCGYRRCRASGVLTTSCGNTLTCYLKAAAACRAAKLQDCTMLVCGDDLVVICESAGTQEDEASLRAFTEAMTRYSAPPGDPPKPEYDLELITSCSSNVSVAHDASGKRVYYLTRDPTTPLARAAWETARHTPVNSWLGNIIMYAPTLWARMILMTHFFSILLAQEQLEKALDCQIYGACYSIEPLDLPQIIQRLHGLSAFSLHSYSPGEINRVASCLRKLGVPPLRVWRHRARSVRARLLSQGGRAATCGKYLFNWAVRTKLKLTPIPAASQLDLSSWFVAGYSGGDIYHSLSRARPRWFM
Protocol Notes: HCV NS5B RdRp enzyme assay (standard / modified)
Format: biochemical
Condition Notes: HCV RdRp genotype 1b enzyme; read-out: IC50
Each item that follows carries a reported IC50.

• COc1ccc2c(c1)C=C(c1ocnc1C(=O)N1CCOCC1)Cn1c-2c(C2CCCCC2)c2ccc(C(=O)NS(=O)(=O)N(C)C)cc21 = 1 to 500 nM
• COc1ccc2c(c1)C=C(c1ocnc1C(=O)O)Cn1c-2c(C2CCCCC2)c2ccc(C(=O)OC(C)(C)C)cc21 = > 40 nM
• COc1ccc2c(c1)C=C(c1ocnc1C(=O)N1CCOCC1)Cn1c-2c(C2CCCCC2)c2ccc(C(=O)O)cc21 = 1 to 500 nM

# context switch: different compound, same IC50
Incoming: Notebook entry, HCV NS5B (Hepatitis C virus genotype 1b) assay: IC50 of COc1ccc2c(c1)C=C(c1c(C(=O)N3CCOCC3)cnn1C)Cn1c-2c(C2CCCCC2)c2ccc(C(=O)NS(=O)(=O)N3CCOCC3)cc21 = ?
Outgoing: < 20 nM
